- assayed target: TDP-43 (Homo sapiens, UniProt Q13148 1-414)
- Sequence (Q13148 whole entry): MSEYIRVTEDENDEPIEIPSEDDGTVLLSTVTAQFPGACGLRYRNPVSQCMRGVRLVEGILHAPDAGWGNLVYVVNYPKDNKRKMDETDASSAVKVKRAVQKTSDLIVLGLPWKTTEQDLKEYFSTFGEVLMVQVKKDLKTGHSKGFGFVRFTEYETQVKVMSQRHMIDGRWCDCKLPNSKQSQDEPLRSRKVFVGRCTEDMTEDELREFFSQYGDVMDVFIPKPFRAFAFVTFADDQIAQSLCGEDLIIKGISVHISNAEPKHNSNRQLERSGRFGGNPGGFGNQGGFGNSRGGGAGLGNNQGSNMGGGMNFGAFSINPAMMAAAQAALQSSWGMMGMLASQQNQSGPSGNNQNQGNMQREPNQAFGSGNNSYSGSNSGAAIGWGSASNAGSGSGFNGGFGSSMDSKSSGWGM
- assay text: RNA Bind-n-Seq with designed 260-mer pool; 25 mM Tris-HCl, 150 mM KCl, 3 mM MgCl2, BSA (printed 500 mg/mL), 20 units/mL SUPERase IN; pH not stated; 500 nM RNA pool, 1 h, 4 C; TDP-43 5, 50, 500 nM; high values mean tight binding
- applied conditions: protein: recombinant; tags: SBP (GST cleaved off with PreScission; pGEX-GST-SBP)
Whole data set: some 9,900 sequences, median “r (bound/input frequency ratio)” near 0.7, cut for the highest 2% near 6.5. What follows is part of a selection rich in the highest values, with near analogues and random picks from the rest.
parameter: binding signal

Batch of 2 binders: report binding signal for each.
1. ENSMUSG00000031028.646|Tub (ssRNA) RNA: GGGAGUUCUACAGUCCGACGAUCGCUUCGAUAUCCGCAUGCUACCCCACUGAGGUCCAGGUAGAGCAGAUGAGGCUGAAAUGUAGAGUGUUCUAUAGAGCAUCUCAGUAGCAUAGAAGGAGAAGCCCAGCUCCAACCUCCUGGACCCCAUACUGGUGACCAGCUUGGUGAGGACAGGCAAAAUUUCUCUAGCUGAGAGCACACUUAGCCAGUUUUCACGCCUAGAACAUAUAUGUCGAUUUGCACAUGAUUGUCUUUUCCUAUUUUGGAGUGGUCAGACAUUUUAUUUUUGUUCAAAAUUAUCCUCUUGCGGUCGCACUAGUGUGGAAUUCUCGGGUGUCAAGG
2. ENSMUSG00000022095.164|Fam160b2|44:48 (ssRNA) RNA: GGGAGUUCUACAGUCCGACGAUCGCUUCGAUAUCCGCAUGCUAGGCUAGGCCGAGACACAAGCAGAUAGCUCUGGCAUUGUUCUUCCAUACUCCUCCAUGGCUGGGGCUGCUACCUCACCCGGCCUGAAUCUGUCUCAACCUGCAAGAGCACUCGGGCGGCGCCAGGCAUUACCUCACAACAGGCCUGCAGUUGUUGGCUUCCCUCCUGGGCAAGGAGGAGCAGGCCAGAGCCCCUUUUGCUUCCUUUUCCUGCCCAUGCCACCUCUCGAAGCCGGGCACAGGUUGCCAGGAGGUGACAUGAACUCUUGCGGUCGCACUAGUGUGGAAUUCUCGGGUGUCAAGG

0.442 R (bound/input frequency ratio)
0.529 R (bound/input frequency ratio)
